- Species on record: Rattus norvegicus
- measurement description: Open TG-GATES - Regimen: Single
- Format: toxicity, organism-based, Sprague-Dawley
- Parameters: regimen Single, gender Male, age 6 weeks
- test settings: in vivo, po, 100 mg/kg, 3 h, tissue Plasma, route gavage, dose level Low

compound | RALB / g/dL
COC1=CC(=O)C[C@@H](C)[C@]12Oc1c(Cl)c(OC)cc(OC)c1C2=O [GRISEOFULVIN] | 3.4
CCOC(=O)CCC(=O)O[C@H]1[C@H](O[C@@H]2[C@@H](C)[C@H](O[C@H]3C[C@@](C)(OC)[C@@H](O)[C@H](C)O3)[C@@H](C)C(=O)O[C@H](CC)[C@@](C)(O)[C@H](O)[C@@H](C)C(=O)[C@H](C)C[C@@]2(C)O)O[C@H](C)C[C@@H]1N(C)C [ERYTHROMYCIN ETHYLSUCCINATE] | 2.9
COc1ccc2[nH]c([S+]([O-])Cc3ncc(C)c(OC)c3C)nc2c1 (centres undefined) [OMEPRAZOLE] | 3.3
NC(N)=Nc1nc(CSCCC(N)=NS(N)(=O)=O)cs1 [FAMOTIDINE] | 3.4

* * *

Listed compounds paired with reported KIDNEY_R
- Organism: Rattus norvegicus
- measurement description: Open TG-GATES - Regimen: Single
- Format: toxicity, organism-based, Sprague-Dawley
- Design: regimen Single, gender Male, age 6 weeks
- test settings: in vivo, po, 10 mg/kg, 24 h, tissue Kidney, route gavage, dose level Low

compound | units symbol | KIDNEY_R
CN(C)CCCN1c2ccccc2CCc2ccc(Cl)cc21 | g | 1
CC(C)OC(=O)C(C)(C)Oc1ccc(C(=O)c2ccc(Cl)cc2)cc1 [FENOFIBRATE] | g | 0.8
CN(C)CCN(Cc1cccs1)c1ccccn1 | g | 0.9
CN(C)CCCN1c2ccccc2CCc2ccccc21 | g | 0.9
CC1=C(/C=C/C(C)=C/C=C/C(C)=C/CO)C(C)(C)CCC1 | g | 1

* * *

- Organism: Rattus norvegicus
- measurement description: Open TG-GATES - Regimen: Daily Repeat
- Assay type: toxicity, organism-based, Sprague-Dawley
- Set-up: regimen Daily Repeat, gender Male, age 6 weeks
- test settings: in vivo, po, 100 mg/kg, 72 h, tissue Plasma, route gavage, dose level Low, time 3 day

compound | ALT
NC(N)=Nc1nc(CSCCC(N)=NS(N)(=O)=O)cs1 | 30.2 IU/L
CCOc1ccc(NC(=O)CC(C)O)cc1 (centres undefined) | 35.2 IU/L
COC1=CC(=O)C[C@@H](C)[C@]12Oc1c(Cl)c(OC)cc(OC)c1C2=O | 35.8 IU/L
CCOC(=O)CCC(=O)O[C@H]1[C@H](O[C@@H]2[C@@H](C)[C@H](O[C@H]3C[C@@](C)(OC)[C@@H](O)[C@H](C)O3)[C@@H](C)C(=O)O[C@H](CC)[C@@](C)(O)[C@H](O)[C@@H](C)C(=O)[C@H](C)C[C@@]2(C)O)O[C@H](C)C[C@@H]1N(C)C [ERYTHROMYCIN ETHYLSUCCINATE] | 44.4 IU/L

* * *

Listed compounds paired with reported Lym
- Organism: Rattus norvegicus
- measurement description: Open TG-GATES - Regimen: Single
- Assay type: toxicity, organism-based, Sprague-Dawley
- Parameters: regimen Single, gender Male, age 6 weeks
- test settings: in vivo, po, 100 mg/kg, 6 h, tissue Blood, route gavage, dose level Low
readout: Lym (%)

compound | units symbol | numeric result
NC(N)=Nc1nc(CSCCC(N)=NS(N)(=O)=O)cs1 [FAMOTIDINE] | % | 71.4
COc1ccc2[nH]c([S+]([O-])Cc3ncc(C)c(OC)c3C)nc2c1 (centres undefined) [OMEPRAZOLE] | % | 76
CCOC(=O)CCC(=O)O[C@H]1[C@H](O[C@@H]2[C@@H](C)[C@H](O[C@H]3C[C@@](C)(OC)[C@@H](O)[C@H](C)O3)[C@@H](C)C(=O)O[C@H](CC)[C@@](C)(O)[C@H](O)[C@@H](C)C(=O)[C@H](C)C[C@@]2(C)O)O[C@H](C)C[C@@H]1N(C)C [ERYTHROMYCIN ETHYLSUCCINATE] | % | 76.6
COC1=CC(=O)C[C@@H](C)[C@]12Oc1c(Cl)c(OC)cc(OC)c1C2=O [GRISEOFULVIN] | % | 75.6
